TEST SUMMARY: Chemical stability of the compound in phosphate buffer at pH 7.4 at 20 uM measured every 5 mins for 25 mins by UV-visible absorption spectra analysis
Assay type: physicochemical
PARTICULARS: pH 7.4, 25 min
RECORDED ENDPOINT: Stability

                                chem_smiles  reported_measurement
0  COc1ccc(/C=C/c2cc(OC)cc(OC)c2/C=C/C(=O)/C=C/c2ccc(OCCCN(C)C)cc2)cc1                Stable
1  COc1ccc(/C=C/c2cc(OC)cc(OC)c2/C=C/C(=O)/C=C/c2ccccc2)cc1              Unstable
2  COc1ccc(/C=C/c2cc(OC)cc(OC)c2/C=C/C(=O)/C=C/c2cccc(OC)c2OC)cc1                Stable
3  COc1ccc(/C=C/c2cc(OC)cc(OC)c2/C=C/C(=O)/C=C/c2ccc(C)s2)cc1              Unstable
4            Oc1ccc(/C=C/c2cc(O)cc(O)c2)cc1              Unstable
5  COc1ccc(/C=C/c2cc(OC)cc(OC)c2/C=C/C(=O)/C=C/c2ccc(OC)cc2OC)cc1                Stable

====

TEST SUMMARY: Cytotoxicity against human HL-7702 cells assessed as viable cells at 10 uM measured after 24 hrs by MTT assay
Assay type: toxicity, cell-based
PARTICULARS: l02, 24 h
RECORDED ENDPOINT: Activity

In [3]: df
Out[3]:
                                chem_smiles  reported_measurement
0  COc1ccc(/C=C/c2cc(OC)cc(OC)c2/C=C/C(=O)/C=C/c2ccc(OC)cc2OC)cc1             Non-Toxic
1  COc1ccc(/C=C/c2cc(OC)cc(OC)c2/C=C/C(=O)/C=C/c2cccc(OC)c2OC)cc1             Non-Toxic
2  COc1ccc(/C=C/c2cc(OC)cc(OC)c2/C=C/C(=O)/C=C/c2ccc(OC(C)(C)C)cc2)cc1             Non-Toxic
3  COc1ccc(/C=C/c2cc(OC)cc(OC)c2/C=C/C(=O)/C=C/c2ccc(C)s2)cc1             Non-Toxic
4  COc1ccc(/C=C/c2cc(OC)cc(OC)c2/C=C/C(=O)/C=C/c2ccc3c(c2OC)OCO3)cc1             Non-Toxic
5  COc1ccc(/C=C/c2cc(OC)cc(OC)c2/C=C/C(=O)/C=C/c2ccc(O)c(OC)c2)cc1             Non-Toxic
6  COc1ccc(/C=C/c2cc(OC)cc(OC)c2/C=C/C(=O)/C=C/c2ccccc2OC)cc1             Non-Toxic
7  COc1ccc(/C=C/c2cc(OC)cc(OC)c2/C=C/C(=O)/C=C/c2c(OC)cc(OC)cc2OC)cc1             Non-Toxic

Entry source: ChEMBL document CHEMBL3877268
